Reported values of apparent KD of MS2 coat protein for individual entries
# Test system: MS2 coat protein
# assay-info: apparent KD of MS2 coat protein; higher = weaker reporter binding
# measurement-parameters: Eterna round: R107; input ligand: tryptophan 2.4 mM

| sequence-input | uom | apparent KD of MS2 coat protein |
| --- | --- | --- |
| AUGUUUGUGUGAGAUACCAGUGAGGCCACAUGAGGAUCACCCAUGUCCCUCACUCCGGCCCACCCUUGGCAGCUCUUAUAGUAAA [Exclusion Theophylline B GF 25] | µM | 0.0104 |
| AAAUAGGUAGGAGAUACCAGAUACGUUAACAUGAGGAUCACCCAUGUGUAUGCACUUAGUGUCCCUUGGCAGCUCGAGGAUCUGG [#18 Same State - Theophylline B] | µM | 0.0274 |
| AGCGACAUGCGUGAUACCAGCUACAUGAGGAUCACCCAUGUCAGUAGGAAACUACUGUGUAGCCCUUGGCAGCACAGUGCAUGUC [Exclusion - Theophylline B (Freestyle 26)] | µM | 0.0177 |
| GGCCUAUGGCGCGAUACCAGCUUGAGUGUACUGGCCAGGUACAUGAGGAUCACCCAUGUAAGCCCUUGGCAGCGCGUCAUAGGCC [#1 Exclusion - Theophylline B Attempt #23 (HarryS)] | µM | 0.00974 |
| UGUACCAUGUCGGCCGCCACUUGAAAUAAACAAGAGGAUCACCCUUGUGACGUCAAAGACGUCUCAAGGACCGGGACAUGGUACU [TryBS Zipper #StaticStem #Zipper] | µM | 0.019 |

* * *

# Tested on: MS2 coat protein
# assay-info: apparent KD of MS2 coat protein; designed switch direction (-1 OFF switch, 1 ON switch): -1; higher = weaker reporter binding
# measurement-parameters: input ligand: none
Form field: apparent KD of MS2 coat protein (one value per entry).
measure-name: apparent KD of MS2 coat protein (nM)

| sequence-input | measure-name | uom | value-observed |
| --- | --- | --- | --- |
| AGAUCGUCAGGAUAUACAUGAGGAUCACCCAUGUAUUGUCUAAAUUUGACUAUACGAUGUAGAAGGGACGAUCG [Exclusion 3 (MOD7 of #1 Marzena11)] (Eterna round: R97, puzzle: Exclusion 3) | apparent KD of MS2 coat protein | nM | 16.2 |
| UAUCUACAUGAGGAUCACCCAUGUGAGGAUAUCAAAACCAGAGCGGAUCUCUGGCCCAUGAGAAGGUACAUGGU [ElNandoxlusion 5 - Jieux - Exclusion 1] (Eterna round: R97, puzzle: Exclusion 1) | apparent KD of MS2 coat protein | nM | 20 |

* * *

# Test system: MS2 coat protein
# assay-info: apparent KD of MS2 coat protein; designed switch direction (-1 OFF switch, 1 ON switch): -1; higher = weaker reporter binding
# measurement-parameters: input ligand: microRNA oligo, concentration not stated
measure-name: apparent KD of MS2 coat protein (nM)

| sequence-input | value-observed |
| --- | --- |
| ACAUGAGGAUCACCCAUGUGACAAUAAUGGCUGAUAUAGAAACAGGAUAUUCGUGAAUAUCUAACGAAGAAGGGUUAUGACUGG [Deportation 67 - Jieux - Exclusion NG 3] (Eterna round: R96, puzzle: Exclusion NG 3) | 38.3 |
| UCACGGGACUGAGGAUAUACAUGAACUAUUUUUGUAGAAGGCAGAAUGUUAGAUUAUACACUAAACAUGAGGAUCACCCAUGUU [JR_ExcNG1_Sub024] (Eterna round: R96, puzzle: Exclusion NG 1) | 15.1 |
| GUCAGCUCGUCAGGAUAUAUUAACAUGAGGAUCACCCAUGUAAGAUCAGGCUUCGGCCAAUGUUAAUAGAAGGGACGAGCUGAC [ENG2/12-B1] (Eterna round: R96, puzzle: Exclusion NG 2) | 745 |
| GCGGGAUAGCAAGGAUAUCCCGAGUCGCAAGGAAACAUCCACAUGAGGAUCACCCAUGUGGCUCUGGAGAAGGUGCGACGCAAA [Onveceanti] (Eterna round: R96, puzzle: Exclusion NG 2) | 9.8 |
| GUCAGCUCGUGAGGAUAUAUAUACAUGAGGAUCACCCAUGUAAGAUCAGGCUUCGGCCAAUGUAUAUAGAAGGCACGAGCUGAU [ENG2/11-A2] (Eterna round: R96, puzzle: Exclusion NG 2) | 695 |
| CUAGCGAUUGUAGGAUAUCGGACUGUUUCAGUCUGAGAAGGACAUGAGGAUCACCCAUGUGAUGGAUCGUGAGAUCCACGCUAG [JL ENG1 3.80] (Eterna round: R96, puzzle: Exclusion NG 1) | 25.7 |
| AAACGGCAGGGAGGAUAUGCCUACCUGGGUCGUCUUCAAACAUGAGGAUCACCCAUGUAGUCGACGCAGAAGGCCCUCAAAGCC [Ontiis] (Eterna round: R96, puzzle: Exclusion NG 2) | 8.22 |
| GUAAUUAAUGUAGGAUAUGCAAGGCGAACCUAAGCAGAAGGAACAUGAGGAUCACCCAUGUAUGCGGUCUGCGUACAGAUCGCU [salish99_ExNG1_r4_004] (Eterna round: R96, puzzle: Exclusion NG 1) | 13.3 |
| UCACGGGACUGAGGAUAUACAUCAACAAUGGUUGUAGAAGGCAGAAGGUUGAAUCAUAUACAAAACAUGAGGAUCACCCAUGUA [JR_ExcNG1_Sub032] (Eterna round: R96, puzzle: Exclusion NG 1) | 23.8 |

* * *

As shown below, each of these sequences has a reported apparent KD of MS2 coat protein value.
# System: MS2 coat protein
# assay-info: apparent KD of MS2 coat protein; designed switch direction (-1 OFF switch, 1 ON switch): -1; higher = weaker reporter binding
# measurement-parameters: input ligand: FMN 200 uM

| sequence-input | uom | apparent KD of MS2 coat protein |
| --- | --- | --- |
| CCUGUGUGAGGAUAUGGUGUUGGCCAAAAGGAAUAGCUCCUCCAGAAGGCACAUGAGGAUCACCCAUGUCGUGG [Jolly's Folly 23 - Jieux - Exclusion 4] (Eterna round: R96, puzzle: Exclusion 4) | µM | 0.138 |
| UCGCUCCGUGUAGGAUAUCGCCGUACCACUCGGCGAGAAGGACAUGAGGAUCACCCAUGUAUGUUAUUAUCACGUGUGGCGCGC [Design 52] (Eterna round: R96, puzzle: Exclusion NG 1) | µM | 0.0335 |
| AGCUGUGGCCGAGGAUAUACACAUGAGGAUCACCCAUGUAGGUGCGGAUACUCGCACCAAUAAGUGUAGAAGGCGGUCUCAGCA [Eli eng2 - 057] (Eterna round: R96, puzzle: Exclusion NG 2) | µM | 0.0146 |
| GGCCGUAAUAAGGAUAUCACUAGCCUCGGCUAGUGAGAAGGUAUUACAUGAGGAUCACCCAUGUGGUCAGGCCA [E6/4-B2] (Eterna round: R97, puzzle: Exclusion 6) | µM | 0.903 |
| CAAAACACUGGAGGAUAUUGGAAAGGAAGUGUACAAGAAGGCCAGCUCUAACAUGAGGAUCACCCAUGUCCAGGGCAUGGGCAA [PowerStrip EXNG 1.12] (Eterna round: R96, puzzle: Exclusion NG 1) | µM | 0.0318 |
| CUCGGGCUGGUGAGGAUAUCGGGCUCUAAAGGGCUCGAGAAGGCACAUGAGGAUCACCCAUGUAAUGGCUCGGG [-29.3, -27.9 kcal, A 23%, 4-4bis] (Eterna round: R97, puzzle: Brourd's mod of Exclusion 4) | µM | 0.0173 |
| GACAUUUGAGGAUAUGCAGCUAGCUUCGUUUUCAAAUCGAGACAUGAGGAUCACCCAUGUAGAAGGCAAGGUCG [Eternabot (L1) Solution 88] (Eterna round: R97, puzzle: Exclusion 2) | µM | 0.0294 |
| GGCAUGCAAGGAUAUACUUACGGUGAUGUUCGAAGCUUUCUACUUGAGGAUCACCCAAGUAGAAGGUGCAUGCC [jl-ex2.4.75 ViennaUCT mod] (Eterna round: R97, puzzle: Exclusion 2) | µM | 0.0105 |
| AAACGGAUAGGAUAUACUUGAGGAUCACCCAAGUGAUCAGUCCCGGGAAUUCCCGCAAGUAGAAGGAUCAAAAG [Arisrevexe] (Eterna round: R97, puzzle: Exclusion 3) | µM | 1.12 |

* * *

# System: MS2 coat protein
# assay-info: apparent KD of MS2 coat protein; designed switch direction (-1 OFF switch, 1 ON switch): -1; higher = weaker reporter binding
# measurement-parameters: input ligand: none

| sequence-input | apparent KD of MS2 coat protein |
| --- | --- |
| GGAUCUUGGGUCAGGAUAUGCUGAUAGUUAUGUCAGCAGAAGGGACAUGAGGAUCACCCAUGUGCUUGGUUUUG [Magic-17] (Eterna round: R96, puzzle: Brourd's mod of Exclusion 4) | 17.2 nM |
| GGAUAUCGAGGAUAUACAUGAGGAUCACCCAUGUUGAAUCCGUGGGAUGGCCGACGAUGUAGAAGGUGACUCAU [Eternabot (Original) Solution 27] (Eterna round: R97, puzzle: Exclusion 3) | 232 nM |
| UGAGCUUACGUAGGAUAUGAGGAUCACCCAUAGAAGGAUAUCGAAAGAGAAGGUCUGAGGAUUACCCAGAAGGACGUGGGCUCU [pwkr exNG2 2xF5 2xFMN.12] (Eterna round: R96, puzzle: Exclusion NG 2) | 151 nM |
| AGUCGGUCAGGAUAUGCAAACGUAGACAUGAGGAUCACCCAUGUAACGUGGGCCUGGUUUGUAGAAGGGACGAGCA [EX5 #85] (Eterna round: R97, puzzle: Exclusion 5) | 28.2 nM |
| AGAACAUGAGGAUCACCCAUGUCGCUUUGCCUACCAAACAGGGAGGAUAUGUAGGGCGCGCACCUACAGAAGGCCCAAACGGAA [Eternabot solution 13] (Eterna round: R96, puzzle: Exclusion NG 3) | 22.5 nM |
| CCUAAGAAAGGAUAUACACCGGUGGGCCGCUGAAUUCAGCAACAUGAGGAUCACCCAUGUAGAAGGUUUAUGGG [Veteso] (Eterna round: R96, puzzle: Exclusion 2) | 262 nM |
| GUCAGCUCGUGAGGAUAUACAUGCGUGCUUCGGCACGAAUUUAAGAUCACAUGAGGAUCACCCAUGUAGAAGGCACGAGCUGAC [ENG2/3-A1] (Eterna round: R96, puzzle: Exclusion NG 2) | 591 nM |
| GAGUACAGAGGAUAUACAUGAGGAUCACCCAUGUGUUUCAGCUAGGAGACUAGCGAAAGUAGAAGGCUGUACUU [salish99_ex3_r4_005] (Eterna round: R97, puzzle: Exclusion 3) | 8.49 nM |
| GGCAUGUGAGGAUAUGUACCUGAGUGCUUUGCGCUCAGGAAACAGAAGGCACAUGAGGAUCACCCAUGUGAUAA [jl-ex4-4.49 ViennaUCT mod] (Eterna round: R97, puzzle: Exclusion 4) | 710 nM |
| UGAUCUAGCGGAGGAUAUACAUGAGGAUCACCCAUGUAUAGGCCAUCUGGUGACAGGUGGAACAUGUAGAAGGCCGCUAGAUCU [JL ENG2 3.81] (Eterna round: R96, puzzle: Exclusion NG 2) | 13.9 nM |
